Test system: Capan-2 tumor xenografts
Test: Dynamic small-animal PET, two-tissue compartment model, Capan-2 xenografts
Type: in vivo, mouse
Details: 68Ga-FAPI-02, Capan-2, − comp.
Attribute Measured: k2 (min⁻¹)
Give a bare numeral; the unit min⁻¹ is implied.

Sample N#C[C@@H]1CCCN1C(=O)CNC(=O)c1ccnc2ccc(OCCCN3CCN(C(=O)CN4CCN(CC(=O)O)CCN(CC(=O)O)CCN(CC(=O)O)CC4)CC3)cc12 [FAPI-02] ; k2 observed: 0.16

---

Tested on: Capan-2 tumor xenografts
Test: Dynamic small-animal PET, two-tissue compartment model, Capan-2 xenografts
Assay type: in vivo, mouse
Conditions: 68Ga-FAPI-02, Capan-2, − comp.
Attribute Measured: k3 (min⁻¹)
Give a bare numeral; the unit min⁻¹ is implied.

Sample N#C[C@@H]1CCCN1C(=O)CNC(=O)c1ccnc2ccc(OCCCN3CCN(C(=O)CN4CCN(CC(=O)O)CCN(CC(=O)O)CCN(CC(=O)O)CC4)CC3)cc12 ; k3 observed: 0.08

---

Test system: Capan-2 tumor xenografts
Experiment: Dynamic small-animal PET, two-tissue compartment model, Capan-2 xenografts
Type: in vivo, mouse
Details: 68Ga-FAPI-02, Capan-2, − comp.
Attribute Measured: k4

Sample N#C[C@@H]1CCCN1C(=O)CNC(=O)c1ccnc2ccc(OCCCN3CCN(C(=O)CN4CCN(CC(=O)O)CCN(CC(=O)O)CCN(CC(=O)O)CC4)CC3)cc12 ; k4 observed: 0.05 min⁻¹

---

Target: human FAP-α (Homo sapiens (Human))
Experiment: Competitive binding of radiolabeled compound to HT-1080-FAP cells against unlabeled compound
Settings: Tc-99m labeled, HT-1080-FAP cells; read-out: IC50
Attribute Measured: IC50 (nM)
Give a bare numeral; the unit nM is implied.

Sample N#C[C@@H]1CC(F)(F)CN1C(=O)CNC(=O)c1ccnc2ccc(OCCCN3CCN(C(=O)CN(Cc4nccn4CC(=O)O)Cc4nccn4CC(=O)O)CC3)cc12 ; IC50 observed: 6.4

---

Assay: Blood pool clearance from SUVmean of the heart
Format: in vivo
Details: hypothetical plateau, two phase exponential decay of heart SUVmean
Attribute Measured: Plateau value (SUVmean)
Form field (numeric): enter value without unit.

Would you please look over these solved cases?
Smiles Repr	Plateau value (SUVmean)
N#C[C@@H]1CC(F)(F)CN1C(=O)CNC(=O)c1ccnc2ccc(OCCCC3CCN(C(=O)CN4CCN(CC(=O)O)CCN(CC(=O)O)CCN(CC(=O)O)CC4)CC3)cc12	0.27
N#C[C@@H]1CC(F)(F)CN1C(=O)CNC(=O)c1ccnc2ccc(OCCCN3CCN(C(=O)CN4CCN(CC(=O)O)CCN(CC(=O)O)CCN(CC(=O)O)CC4)CC3)cc12	0.21
CN(CCCN1CCN(C(=O)CN2CCN(CC(=O)O)CCN(CC(=O)O)CCN(CC(=O)O)CC2)CC1)c1ccc2nccc(C(=O)NCC(=O)N3CC(F)(F)C[C@H]3C#N)c2c1	0.19

API: the following record is the query input.
Sample N#C[C@@H]1CCCN1C(=O)CNC(=O)c1ccnc2ccc(OCCCN3CCN(C(=O)CN4CCN(CC(=O)O)CCN(CC(=O)O)CC4)CC3)cc12 ; Plateau value (SUVmean) observed: 0.32

---

System: HT-1080-FAP tumor xenografts
Assay: Organ distribution ex vivo in HT-1080-FAP tumor bearing nude mice
Parameters: species or system mouse
Conditions: HT-1080-FAP tumor bearing nude mice, 24 h, mean ± SD, n = 3
Attribute Measured: Tumor uptake 24 h (% ID/g)
Give a bare numeral; the unit % ID/g is implied.

Smiles Repr	Units Label	Tumor uptake 24 h
N#C[C@@H]1CCCN1C(=O)CNC(=O)c1ccnc2ccc(OCCCN3CCN(C(=O)CN4CCN(CC(=O)O)CCN(CC(=O)O)CCN(CC(=O)O)CC4)CC3)cc12	% ID/g	1.12

Sample N#C[C@@H]1CC(F)(F)CN1C(=O)CNC(=O)c1ccnc2ccc(OCCCC3CCN(C(=O)CN4CCN(CC(=O)O)CCN(CC(=O)O)CCN(CC(=O)O)CC4)CC3)cc12 ; Tumor uptake 24 h observed: 4.8

Sample N#C[C@@H]1CC(F)(F)CN1C(=O)CNC(=O)c1ccnc2ccc(OCCCN3CCN(C(=O)CN4CCN(CC(=O)O)CCN(CC(=O)O)CCN(CC(=O)O)CC4)CC3)cc12 ; Tumor uptake 24 h observed: 3.0

Sample N#C[C@@H]1CC(F)(F)CN1C(=O)CNC(=O)c1ccnc2ccc(OCCCCN3CCN(C(=O)CN4CCN(CC(=O)O)CCN(CC(=O)O)CCN(CC(=O)O)CC4)CC3)cc12 ; Tumor uptake 24 h observed: 2.8

Sample N#C[C@@H]1CC(F)(F)CN1C(=O)CNC(=O)c1ccnc2ccc(OCCOCCOCCN3CCN(C(=O)CN4CCN(CC(=O)O)CCN(CC(=O)O)CCN(CC(=O)O)CC4)CC3)cc12 ; Tumor uptake 24 h observed: 1.1

---

Test system: HT-1080-FAP tumor xenografts
Experiment: Organ distribution ex vivo in HT-1080-FAP tumor bearing nude mice
Design: species or system mouse
Conditions: HT-1080-FAP tumor bearing nude mice, 1 h, mean ± SD, n = 3
Attribute Measured: Tumor uptake 1 h (% ID/g)
Give a bare numeral; the unit % ID/g is implied.

Would you please look over these solved cases?
Smiles Repr	Tumor uptake 1 h [% ID/g]
N#C[C@@H]1CCCN1C(=O)CNC(=O)c1ccnc2ccc(OCCCN3CCN(C(=O)CN4CCN(CC(=O)O)CCN(CC(=O)O)CCN(CC(=O)O)CC4)CC3)cc12	4.5
N#C[C@@H]1CC(F)(F)CN1C(=O)CNC(=O)c1ccnc2ccc(OCCOCCOCCN3CCN(C(=O)CN4CCN(CC(=O)O)CCN(CC(=O)O)CCN(CC(=O)O)CC4)CC3)cc12	3.4
N#C[C@@H]1CC(F)(F)CN1C(=O)CNC(=O)c1ccnc2ccc(OCCCCN3CCN(C(=O)CN4CCN(CC(=O)O)CCN(CC(=O)O)CCN(CC(=O)O)CC4)CC3)cc12	6.0
N#C[C@@H]1CC(F)(F)CN1C(=O)CNC(=O)c1ccnc2ccc(OCCCC3CCN(C(=O)CN4CCN(CC(=O)O)CCN(CC(=O)O)CCN(CC(=O)O)CC4)CC3)cc12	6.3

Sample N#C[C@@H]1CC(F)(F)CN1C(=O)CNC(=O)c1ccnc2ccc(OCCCN3CCN(C(=O)CN4CCN(CC(=O)O)CCN(CC(=O)O)CCN(CC(=O)O)CC4)CC3)cc12 ; Tumor uptake 1 h observed: 4.9

---

System: HT-1080-FAP tumor xenografts
Test: Dynamic small-animal PET, two-tissue compartment model, HT-1080-FAP xenografts
Type: in vivo, mouse
Details: 68Ga-FAPI-02, HT-1080-FAP, + comp.
Attribute Measured: k2 (min⁻¹)
Give a bare numeral; the unit min⁻¹ is implied.

// assay HT-1080-FAP tumor xenografts, entry N#C[C@@H]1CCCN1C(=O)CNC(=O)c1ccnc2ccc(OCCCN3CCN(C(=O)CN4CCN(CC(=O)O)CCN(CC(=O)O)CCN(CC(=O)O)CC4)CC3)cc12 , k2 value = 0.32

---

Tested on: HT-1080-FAP tumor xenografts
Assay: Organ distribution ex vivo in HT-1080-FAP tumor bearing nude mice
Design: species or system mouse
Conditions: HT-1080-FAP tumor bearing nude mice, 4 h, mean ± SD, n = 3
Response key: Criterion met means Tumor uptake 4 h >= 5 % ID/g; Criterion not met means Tumor uptake 4 h < 5 % ID/g.

These recorded examples may help you get a feel for the data.
Molecule	Cat
N#C[C@@H]1CC(F)(F)CN1C(=O)CNC(=O)c1ccnc2ccc(OCCOCCOCCN3CCN(C(=O)CN4CCN(CC(=O)O)CCN(CC(=O)O)CCN(CC(=O)O)CC4)CC3)cc12 [FAPI-15]	Criterion not met
N#C[C@@H]1CC(F)(F)CN1C(=O)CNC(=O)c1ccnc2ccc(OCCCC3CCN(C(=O)CN4CCN(CC(=O)O)CCN(CC(=O)O)CCN(CC(=O)O)CC4)CC3)cc12 [FAPI-13]	Criterion met
N#C[C@@H]1CC(F)(F)CN1C(=O)CNC(=O)c1ccnc2ccc(OCCCCN3CCN(C(=O)CN4CCN(CC(=O)O)CCN(CC(=O)O)CCN(CC(=O)O)CC4)CC3)cc12 [FAPI-05]	Criterion met
N#C[C@@H]1CCCN1C(=O)CNC(=O)c1ccnc2ccc(OCCCN3CCN(C(=O)CN4CCN(CC(=O)O)CCN(CC(=O)O)CCN(CC(=O)O)CC4)CC3)cc12 [FAPI-02]	Criterion not met

Challenge: Is it the case that N#C[C@@H]1CC(F)(F)CN1C(=O)CNC(=O)c1ccnc2ccc(OCCCN3CCN(C(=O)CN4CCN(CC(=O)O)CCN(CC(=O)O)CCN(CC(=O)O)CC4)CC3)cc12 [FAPI-04] has Tumor uptake 4 h reaching or exceeding 5 % ID/g?
Response given: Criterion met

---

Target: human FAP-α (Homo sapiens (Human), UniProt Q12884)
Sequence (Q12884 whole entry): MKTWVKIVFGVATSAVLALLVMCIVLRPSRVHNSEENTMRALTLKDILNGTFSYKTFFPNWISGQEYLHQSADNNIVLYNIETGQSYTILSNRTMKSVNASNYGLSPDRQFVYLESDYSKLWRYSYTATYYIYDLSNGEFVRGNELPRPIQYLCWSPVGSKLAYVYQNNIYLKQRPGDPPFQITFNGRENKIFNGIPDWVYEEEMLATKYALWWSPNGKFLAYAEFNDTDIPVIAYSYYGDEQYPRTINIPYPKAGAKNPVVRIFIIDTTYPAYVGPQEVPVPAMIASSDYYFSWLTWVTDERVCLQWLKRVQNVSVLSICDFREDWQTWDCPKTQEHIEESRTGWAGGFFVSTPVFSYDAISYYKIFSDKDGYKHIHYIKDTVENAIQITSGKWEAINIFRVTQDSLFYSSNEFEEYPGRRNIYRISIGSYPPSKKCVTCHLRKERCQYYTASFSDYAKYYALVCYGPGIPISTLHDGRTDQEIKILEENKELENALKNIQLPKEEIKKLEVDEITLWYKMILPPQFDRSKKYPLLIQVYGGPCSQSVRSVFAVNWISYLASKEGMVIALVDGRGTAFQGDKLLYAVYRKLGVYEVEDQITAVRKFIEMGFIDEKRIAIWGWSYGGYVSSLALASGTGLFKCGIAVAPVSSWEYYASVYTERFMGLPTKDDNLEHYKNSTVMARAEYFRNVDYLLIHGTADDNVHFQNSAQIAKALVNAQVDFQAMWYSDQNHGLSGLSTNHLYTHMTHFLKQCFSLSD
Experiment: Competitive binding of radiolabeled compound to HT-1080-FAP cells against unlabeled compound
Details: radiolabeled FAPI-01 (I-125) / FAPI-02 (Lu-177), HT-1080-FAP cells, 60 min; read-out: IC50 human FAP-α
Attribute Measured: pIC50
// pIC50 is dimensionless: -log10 of concentration (M)

Compound	pIC50
N#C[C@@H]1CCCN1C(=O)CNC(=O)c1ccnc2cccc(I)c12 [FAPI-01]	7.40

API: the following record is the query input.
Sample N#C[C@@H]1CCCN1C(=O)CNC(=O)c1ccnc2ccc(OCCCN3CCN(C(=O)CN4CCN(CC(=O)O)CCN(CC(=O)O)CCN(CC(=O)O)CC4)CC3)cc12 [FAPI-02] ; pIC50 observed: 7.68
